# target: T1, native human ApoC3 (human, UniProt P02656 21-99, biotinylated in the captured-antigen assays (Tables 6 and 8); sites not stated)
# T1 construct: also called nhuApoC3; native huApoC3
# T1 sequence (P02656 21-99): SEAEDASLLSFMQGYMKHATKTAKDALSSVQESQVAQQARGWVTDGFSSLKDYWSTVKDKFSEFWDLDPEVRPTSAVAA
# procedure text: SPR, IgG captured via anti-human Fc, ApoC3 analyte 100 nM
assay endpoint: kon (M⁻¹ s⁻¹)

{"binder": "29G02 IgG (antibody, V domains shown) VH: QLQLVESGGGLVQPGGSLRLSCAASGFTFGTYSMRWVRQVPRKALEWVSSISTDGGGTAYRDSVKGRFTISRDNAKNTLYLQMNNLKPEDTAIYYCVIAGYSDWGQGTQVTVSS VL: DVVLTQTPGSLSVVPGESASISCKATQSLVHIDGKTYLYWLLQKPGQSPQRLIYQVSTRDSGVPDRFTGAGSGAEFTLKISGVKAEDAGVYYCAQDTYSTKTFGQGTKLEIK", "assay endpoint": "kon", "observed measurement": 301000}
{"binder": "29G11 IgG (antibody, V domains shown) VH: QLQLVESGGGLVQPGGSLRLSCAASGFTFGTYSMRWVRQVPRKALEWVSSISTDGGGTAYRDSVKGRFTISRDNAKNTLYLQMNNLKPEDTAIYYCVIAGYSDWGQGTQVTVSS VL: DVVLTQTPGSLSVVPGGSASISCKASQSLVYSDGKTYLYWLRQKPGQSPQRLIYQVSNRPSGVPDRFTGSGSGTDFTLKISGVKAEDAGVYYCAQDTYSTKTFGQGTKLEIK", "assay endpoint": "kon", "observed measurement": 241000}
{"binder": "29A06 IgG (antibody, V domains shown) VH: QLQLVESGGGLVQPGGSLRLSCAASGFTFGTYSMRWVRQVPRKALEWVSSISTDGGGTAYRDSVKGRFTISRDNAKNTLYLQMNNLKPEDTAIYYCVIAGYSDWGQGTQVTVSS VL: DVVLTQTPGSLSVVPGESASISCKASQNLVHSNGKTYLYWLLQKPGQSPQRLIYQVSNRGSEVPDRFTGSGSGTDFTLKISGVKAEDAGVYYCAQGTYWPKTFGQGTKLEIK", "assay endpoint": "kon", "observed measurement": 390000}
